Exercise: for every item that follows, state its recorded pIC50.
- system: Neutrophil elastase (Homo sapiens, UniProt P08246)
- Sequence (P08246 whole entry): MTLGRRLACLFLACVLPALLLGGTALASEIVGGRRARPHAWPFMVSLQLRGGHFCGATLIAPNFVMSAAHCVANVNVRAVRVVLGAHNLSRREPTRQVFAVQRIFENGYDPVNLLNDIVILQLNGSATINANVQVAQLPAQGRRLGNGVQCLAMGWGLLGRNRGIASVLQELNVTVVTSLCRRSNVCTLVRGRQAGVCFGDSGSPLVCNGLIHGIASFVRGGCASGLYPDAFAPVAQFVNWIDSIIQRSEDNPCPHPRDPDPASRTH
- test.details: Inhibitory concentration against Human Leukocyte Elastase from human sputum
Please note pIC50 is a logarithmic value: minus log10 of concentration in mol/L. Answer with that number alone.

INPUT: Record request: pIC50 value, item CC(C)[C@H](NC(=O)OC(C)(C)C)C(=O)N1C2CCC(CC2)[C@@H]1C(=O)N[C@H](C(=O)C(F)(F)F)C(C)C
OUTPUT: 7.49

INPUT: Query CCOCOc1c(C(C)(C)C)cc(/C=C/C(=O)NS(=O)(=O)c2ccc(C(=O)NC(C(=O)N3[C@@H](C(=O)NC(C(=O)C(F)(F)F)C(C)C)C[C@H]4CCCC[C@H]43)C(C)C)cc2)cc1C(C)(C)C (some centres not stated) next
OUTPUT: 7.44

INPUT: CC(C)C(NC(=O)[C@@H]1CC2CCCCC2N1C(=O)[C@@H](CCCCNC(=O)CCCSc1cc(C(C)(C)C)c(O)c(C(C)(C)C)c1)NC(=O)c1ccc(C(=O)NS(=O)(=O)c2ccc(Cl)cc2)cc1)C(=O)C(F)(F)F (some centres not stated) , same question.
OUTPUT: 7.08

INPUT: Entry CC(C)C(NC(=O)c1ccc(C(=O)NS(=O)(=O)c2ccc(Cl)cc2)cc1)C(=O)N1C2CCC(CC2)[C@@H]1C(=O)NC(C(=O)C(F)(F)F)C(C)C (some centres not stated) please
OUTPUT: 7.82

INPUT: Then what about the compound CC(C)C(NC(=O)c1ccc(S(=O)(=O)NC(=O)c2cc(C(C)(C)C)c(OC(=O)c3cc(C(C)(C)C)c(O)c(C(C)(C)C)c3)c(C(C)(C)C)c2)cc1)C(=O)N1[C@@H](C(=O)NC(C(=O)C(F)(F)F)C(C)C)C[C@H]2CCCC[C@H]21 (some centres not stated) ?
OUTPUT: 7.34

INPUT: Note, next up: CC(C)C(NC(=O)c1ccc(S(=O)(=O)NC(=O)Cc2cc(C(C)(C)C)c(O)c(C(C)(C)C)c2)cc1)C(=O)N1[C@@H](C(=O)NC(C(=O)C(F)(F)F)C(C)C)C[C@H]2CCCC[C@H]21 (some centres not stated)
OUTPUT: 7.42

INPUT: Try CC(C)C(NC(=O)[C@@H]1CC2CCCCC2N1C(=O)[C@@H](CCCCNC(=O)Cc1cc(C(C)(C)C)c(O)c(C(C)(C)C)c1)NC(=O)c1ccc(C(=O)NS(=O)(=O)c2ccc(Cl)cc2)cc1)C(=O)C(F)(F)F (some centres not stated) next.
OUTPUT: 7.15

----------
- system: Neutrophil elastase (Homo sapiens) (UniProt P08246)
- test.details: Percentage inhibition of HLE induced hemorrhage in the hamster lung at 3 hours
- Format: functional
- Set-up: concentration or dose not given beside the values
- condition.notes: concentration not given here
Exercise: state measured inhibition for each of the molecules provided.
Your answer should be a plain number; it is taken to be in %.

INPUT: Would you kindly share the measured inhibition for CC(C)C(NC(=O)c1ccc(S(=O)(=O)NC(=O)Cc2cc(C(C)(C)C)c(O)c(C(C)(C)C)c2)cc1)C(=O)N1[C@@H](C(=O)NC(C(=O)C(F)(F)F)C(C)C)C[C@H]2CCCC[C@H]21 (stereo not given in full) ?
OUTPUT: 66

INPUT: Now give it for CC(C)C(NC(=O)[C@@H]1CC2CCCCC2N1C(=O)[C@@H](CCCCNC(=O)Cc1cc(C(C)(C)C)c(O)c(C(C)(C)C)c1)NC(=O)c1ccc(C(=O)NS(=O)(=O)c2ccc(Cl)cc2)cc1)C(=O)C(F)(F)F (stereo not given in full) too.
OUTPUT: 40

INPUT: Same for CC(C)C(NC(=O)c1ccc(S(=O)(=O)NC(=O)c2cc(C(C)(C)C)c(OC(=O)c3cc(C(C)(C)C)c(O)c(C(C)(C)C)c3)c(C(C)(C)C)c2)cc1)C(=O)N1[C@@H](C(=O)NC(C(=O)C(F)(F)F)C(C)C)C[C@H]2CCCC[C@H]21 (stereo not given in full)
OUTPUT: 0

INPUT: Same again, this time with CCOCOc1c(C(C)(C)C)cc(/C=C/C(=O)NS(=O)(=O)c2ccc(C(=O)NC(C(=O)N3[C@@H](C(=O)NC(C(=O)C(F)(F)F)C(C)C)C[C@H]4CCCC[C@H]43)C(C)C)cc2)cc1C(C)(C)C (stereo not given in full)
OUTPUT: 19

INPUT: For CC(C)C(NC(=O)[C@@H]1CC2CCCCC2N1C(=O)[C@@H](CCCCNC(=O)CCCSc1cc(C(C)(C)C)c(O)c(C(C)(C)C)c1)NC(=O)c1ccc(C(=O)NS(=O)(=O)c2ccc(Cl)cc2)cc1)C(=O)C(F)(F)F (stereo not given in full) then?
OUTPUT: 3
